Target: T1, monkey GFRα3 expressed with a C-terminal myc-myc-hexahistidine tag (monkey (Mf), UniProt O60609 32-374 (human entry), limits assumed)
T1 construct: also called MfGFRα3-mmh; MfGFRα3-mmH
T1 chain: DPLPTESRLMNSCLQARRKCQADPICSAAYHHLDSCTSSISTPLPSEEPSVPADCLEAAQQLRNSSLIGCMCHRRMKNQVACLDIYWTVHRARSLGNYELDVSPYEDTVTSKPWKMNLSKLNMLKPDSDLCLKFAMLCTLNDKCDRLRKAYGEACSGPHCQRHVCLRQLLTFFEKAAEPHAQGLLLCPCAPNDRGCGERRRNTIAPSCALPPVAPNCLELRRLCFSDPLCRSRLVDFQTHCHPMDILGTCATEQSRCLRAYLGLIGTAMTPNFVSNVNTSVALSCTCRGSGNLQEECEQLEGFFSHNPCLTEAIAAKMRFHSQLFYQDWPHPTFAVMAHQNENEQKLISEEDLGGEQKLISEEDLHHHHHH
Experiment: SPR, Ab captured, 25C

[
  {
    "BINDER": "H4H2293P (antibody, human IgG4, V domains shown, human IgG4 Fc (H4H)) VH: QVQLVESGGGVVQPGRSLRLSCAASGFSFSDYVMHWVRQAPGKGLEWVASIWFDGSNELYADSVKGRFTISRDNSKNTLFLQMNSLRAEDTAVYYCAKKGVLVATSAFHIWGQGTMVTVSS VL: AIQMTQSPSSLSASVGDRVTITCRASQNINNYLNWYHQKPGKAPNLLIYAASSLQSGVPSRFSGSGSGTDYTLTISSLQPEDFGNYYCQQSYSTSMYTFGQGTKLEIK",
    "kon, M⁻¹ s⁻¹": 290000
  },
  {
    "BINDER": "H4H2294S (antibody, human IgG4, V domains shown, human IgG4 Fc (H4H)) VH: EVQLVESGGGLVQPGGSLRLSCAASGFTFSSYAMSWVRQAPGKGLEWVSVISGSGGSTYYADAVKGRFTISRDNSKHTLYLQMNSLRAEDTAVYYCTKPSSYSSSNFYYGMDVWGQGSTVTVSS VL: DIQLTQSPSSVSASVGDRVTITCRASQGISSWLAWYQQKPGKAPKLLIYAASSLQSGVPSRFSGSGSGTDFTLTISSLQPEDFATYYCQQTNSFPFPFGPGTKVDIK",
    "kon, M⁻¹ s⁻¹": 325000
  }
]
